System: Phytophthora infestans
Assay type: in vivo
Conditions: tomato late blight, sprayed the day before inoculation; "*" compound tested at 40 ppm
Property Name: Test B rating (% disease control) (%)
Numeric only. Scale: %

Please look up its Test B rating (% disease control): CCOC(=Nc1cc(C)ccc1C)N1CCC(c2nc(C3=NOC(c4ccccc4)C3)cs2)CC1 (centres unmarked) [compound 29] 99

Requested field: Test B rating (% disease control). Item: Cc1ccc(C)c(N=C(C#N)N2CCC(c3nc(C4=NOC(c5ccccc5)C4)cs3)CC2)c1 (centres unmarked) [compound 32] 58

// returns reported Test B rating (% disease control) for input CCCCCCC(O)C(=O)N1CCC(c2nc(C3=NOC(c4c(F)cccc4F)C3)cs2)CC1 (centres unmarked) [compound 61] 100

Give its Test B rating (% disease control) value. Item: CC(C)CC(O)C(=O)N1CCC(c2nc(C3=NOC(c4c(F)cccc4F)C3)cs2)CC1 (centres unmarked) [compound 57] 100

Dear colleague, I am looking for the recorded Test B rating (% disease control) of the following molecule: N#CCC(=O)N1CCC(c2nc(C3=NOC(c4c(F)cccc4F)C3)cs2)CC1 (centres unmarked) [compound 63] 100

Endpoint output: Test B rating (% disease control) of CCCCC(O)C(=O)N1CCC(c2nc(C3=NOC(c4c(F)cccc4F)C3)cs2)CC1 (centres unmarked) [compound 58] . Value? 100

Record request: Test B rating (% disease control) value, item Cc1ccc(C)c(N=C(N(C)C)N2CCC(c3nc(C4=NOC(c5ccccc5)C4)cs3)CC2)c1 (centres unmarked) [compound 24] 97

I am curious: what Test B rating (% disease control) value has been reported for CC(C)CC(=O)C(=O)N1CCC(c2nc(C3=NOC(c4c(F)cccc4F)C3)cs2)CC1 (centres unmarked) [compound 69] ? 84

Fill in the blank: the reported Test B rating (% disease control) of CONC(=Nc1cc(C)ccc1C)N1CCC(c2nc(C3=NOC(c4c(F)cccc4F)C3)cs2)CC1 (centres unmarked) [compound 34] is ____. 100

# get_value(readout='Test B rating (% disease control)', item= O=C(C(=O)N1CCC(c2nc(C3=NOC(c4c(F)cccc4F)C3)cs2)CC1)c1ccco1 (centres unmarked) [compound 72] ) 100

Quick check: Test B rating (% disease control) of Cc1cc(C)c(C(=O)C(=O)N2CCC(c3nc(C4=NOC(c5ccccc5F)C4)cs3)CC2)c(C)c1 (centres unmarked) [compound 51] ? 52

What value of Test B rating (% disease control) has been recorded for this entry: O=C(NC1CCCC1)N1CCC(c2nc(C3=NOC(c4ccccc4)C3)cs2)CC1 (centres unmarked) [compound 19] 100

# Test B rating (% disease control) lookup, item CCC(=O)C(=O)N1CCC(c2nc(C3=NOC(c4c(F)cccc4F)C3)cs2)CC1 (centres unmarked) [compound 66] 100

Which Test B rating (% disease control) reading was recorded for the molecule CC(C)C(=O)C(=O)N1CCC(c2nc(C3=NOC(c4c(F)cccc4F)C3)cs2)CC1 (centres unmarked) [compound 68] ? 100

Entry under review: CCC(C)NC(=O)N1CCC(c2nc(C3=NOC(c4ccccc4)C3)cs2)CC1 (centres unmarked) [compound 17] . Reported Test B rating (% disease control)? 100

Looking for the measured Test B rating (% disease control) of Cc1ccc(C)c(C(=O)NC(=O)N2CCC(c3nc(C4=NOC(c5ccccc5F)C4)cs3)CC2)c1 (centres unmarked) [compound 37] , can you help? 63

GET /values?readout=Test B rating (% disease control)&item= Cc1ccc(C)c(N=C(NO)N2CCC(c3nc(C4=NOC(c5c(F)cccc5F)C4)cs3)CC2)c1 (centres unmarked) [compound 25] 100

---

Kindly state Test B rating (% disease control) for each of the entries shown.
Test system: Phytophthora infestans
Type: in vivo
Conditions: tomato late blight, sprayed the day before inoculation; Cmpd No. unmarked, rate not stated in table (b1197 mentions a 200 ppm test suspension)

What measured Test B rating (% disease control) goes with CN(C)C(=O)N1CCC(c2nc(C3=NOC(c4ccccc4)C3)cs2)CC1 (stereo not shown) ? 0%

# input molecule: CC(C)NC(=O)N1CCC(c2nc(C3=NOC(c4ccccc4)C3)cs2)CC1 (stereo not shown) ; wanted: its Test B rating (% disease control) 100%

Tell me the measured Test B rating (% disease control) of CCCNC(=O)N1CCC(c2nc(C3=NOC(c4ccccc4)C3)cs2)CC1 (stereo not shown) , please. 100%

// Test B rating (% disease control) lookup, key: CC(C)(C)NC(=O)N1CCC(c2nc(C3=NOC(c4ccccc4)C3)cs2)CC1 (stereo not shown) 100%

Returns the measured Test B rating (% disease control) for the input molecule. Input: CC(CC(=O)N1CCC(c2nc(C3=NOC(c4ccccc4F)C3)cs2)CC1)C(F)(F)F (stereo not shown) 33%

For the molecule Cc1ccc(C)c(N=CN2CCC(c3nc(C4=NOC(c5ccccc5)C4)cs3)CC2)c1 (stereo not shown) , what Test B rating (% disease control) is on record? 88%

// returns reported Test B rating (% disease control) for input CCNC(=O)N1CCC(c2nc(C3=NOC(c4ccccc4)C3)cs2)CC1 (stereo not shown) 99%

Dear colleague, I am looking for the recorded Test B rating (% disease control) of the following molecule: Cc1ccc(C)c(N=CN2CCC(c3nc(C4=NOC(c5ccccc5)C4)cs3)CC2)c1.Cl (stereo not shown) 95%

Which Test B rating (% disease control) value is on record for C#CCCC(=O)N1CCC(c2nc(C3=NOC(c4ccccc4F)C3)cs2)CC1 (stereo not shown) ? 40%

Sample CCN(CC)C(=O)N1CCC(c2nc(C3=NOC(c4ccccc4)C3)cs2)CC1 (stereo not shown) — what was its Test B rating (% disease control)? 40%

---

Tested on: Phytophthora infestans
Assay type: in vivo
Conditions: tomato late blight, sprayed the day before inoculation; "*" compound tested at 40 ppm
For each of the compounds below, state its Test B rating (% disease control).
Just the number in %, nothing appended.

Please look up its Test B rating (% disease control): CCC(O)C(=O)N1CCC(c2nc(C3=NOC(c4c(F)cccc4F)C3)cs2)CC1 (stereo not shown) [compound 48] 100

May I ask what Test B rating (% disease control) has been recorded for CS(=O)(=O)CC(=O)N1CCC(c2nc(C3=NOC(c4c(F)cccc4F)C3)cs2)CC1 (stereo not shown) [compound 62] ? 99

Tell me the measured Test B rating (% disease control) of CSC(=Nc1cc(C)ccc1C)N1CCC(c2nc(C3=NOC(c4ccccc4)C3)cs2)CC1 (stereo not shown) [Example 1] , please. 97

Item CC(C)C(O)C(=O)N1CCC(c2nc(C3=NOC(c4c(F)cccc4F)C3)cs2)CC1 (mixture of isomers) [compound 54] has what recorded Test B rating (% disease control)? 100

Data request, read-out Test B rating (% disease control), for CC(=O)OCC(=O)N1CCC(c2nc(C3=NOC(c4c(F)cccc4F)C3)cs2)CC1 (stereo not shown) [compound 64] 100

Recorded Test B rating (% disease control) for Cc1cc(C(F)(F)F)nn1C(=O)C(=O)N1CCC(c2nc(C3=NOC(c4c(F)cccc4F)C3)cs2)CC1 (stereo not shown) [compound 43] , please? 25

Entry O=C(C(O)Cc1ccccc1)N1CCC(c2nc(C3=NOC(c4c(F)cccc4F)C3)cs2)CC1 (mixture of isomers) [compound 50] has what Test B rating (% disease control)? 87

---

Tested on: Phytophthora infestans
Assay type: in vivo
Conditions: tomato late blight, sprayed the day before inoculation; "**" compound tested at 10 ppm
Property Name: Test B rating (% disease control) (%)
Answer format: numeric, % implied, no suffix.

Dear colleague, I am looking for the recorded Test B rating (% disease control) of the following compound: O=C(COCC(F)(F)F)N1CCC(c2nc(C3=NOC(c4c(F)cccc4F)C3)cs2)CC1 (centres unmarked) 10

Please give the measured Test B rating (% disease control) for this compound: Cc1ccc(C)c(N=C(N)N2CCC(c3nc(C4=NOC(c5ccccc5)C4)cs3)CC2)c1 (centres unmarked) 100

Can you share its Test B rating (% disease control)? I mean this compound: O=C(COCCC(F)(F)F)N1CCC(c2nc(C3=NOC(c4c(F)cccc4F)C3)cs2)CC1 (centres unmarked) 100

# lookup: Test B rating (% disease control) of O=C(CCOCC(F)(F)F)N1CCC(c2nc(C3=NOC(c4c(F)cccc4F)C3)cs2)CC1 (centres unmarked) 100

What value of Test B rating (% disease control) has been reported for the following compound? CC(C)C(O)C(=O)N1CCC(c2nc(C3=NOC(c4c(F)cccc4F)C3)cs2)CC1 (mixture of isomers) 100

---

Test system: Phytophthora infestans
Type: in vivo
Settings: tomato late blight, sprayed 17 h after inoculation; "*" compound tested at 40 ppm
Assign Test C rating (% disease control) to each entry below.

What value of Test C rating (% disease control) has been recorded for this entry: Cc1ccc(C)c(N=C(C#N)N2CCC(c3nc(C4=NOC(c5ccccc5)C4)cs3)CC2)c1 (centres unmarked) [compound 32] 0%

Quick one: Test C rating (% disease control) for Cc1ccc(C)c(C(=O)C(=O)N2CCC(c3nc(C4=NOC(c5c(F)cccc5F)C4)cs3)CC2)c1 (centres unmarked) [compound 52] ? 96%

Request the reported Test C rating (% disease control) associated with CC(C)C(=O)C(=O)N1CCC(c2nc(C3=NOC(c4c(F)cccc4F)C3)cs2)CC1 (centres unmarked) [compound 68] 93%

Returns the measured Test C rating (% disease control) for the input molecule. Input: CSC(=Nc1cc(C)ccc1C)N1CCC(c2nc(C3=NOC(c4ccccc4)C3)cs2)CC1 (centres unmarked) [Example 1] 53%

Form field: reported Test C rating (% disease control) of CC(C)C(O)C(=O)N1CCC(c2nc(C3=NOC(c4c(F)cccc4F)C3)cs2)CC1 (mixture of isomers) [compound 54] 99%

Value lookup for Test C rating (% disease control); key = O=C(C(O)Cc1ccccc1)N1CCC(c2nc(C3=NOC(c4c(F)cccc4F)C3)cs2)CC1 (mixture of isomers) [compound 50] 0%

What value of Test C rating (% disease control) has been reported for the following molecule? CCCCCCC(O)C(=O)N1CCC(c2nc(C3=NOC(c4c(F)cccc4F)C3)cs2)CC1 (centres unmarked) [compound 61] 47%

What measured Test C rating (% disease control) goes with CCONC(=Nc1cc(C)ccc1C)N1CCC(c2nc(C3=NOC(c4c(F)cccc4F)C3)cs2)CC1 (centres unmarked) [compound 39] ? 97%

Form field: reported Test C rating (% disease control) of Cc1ccc(C)c(N=C(N(C)C)N2CCC(c3nc(C4=NOC(c5ccccc5)C4)cs3)CC2)c1 (centres unmarked) [compound 24] 39%

Give its Test C rating (% disease control) value. Item: Cc1ccc(C)c(C(=O)NC(=O)N2CCC(c3nc(C4=NOC(c5c(F)cccc5F)C4)cs3)CC2)c1 (centres unmarked) [compound 36] 99%

Requested read-out: Test C rating (% disease control). Entry: CS(=O)(=O)CC(=O)N1CCC(c2nc(C3=NOC(c4c(F)cccc4F)C3)cs2)CC1 (centres unmarked) [compound 62] 95%

Recorded values, source patent US8349870B2.
